Reference source for all entries: the supplement of paper PMC8728848

- TARGET_OR_SYSTEM: GalNAc(b1-4)GlcNAc
- ASSAY_REMARKS: glycan array binding signal (z-score within array); higher = stronger binding
- SETUP_CONDITIONS: glycan notation: IUPAC condensed, linker removed
This excerpt belongs to a sample that is enriched for the strongest signals.
MEASUREMENT_KIND: glycan array binding signal (z-score)

// worked examples, glycan array binding signal (z-score) included
[
  {
    "BINDER": "PA-IL (Pseudomonas aeruginosa), Q05097 (protein) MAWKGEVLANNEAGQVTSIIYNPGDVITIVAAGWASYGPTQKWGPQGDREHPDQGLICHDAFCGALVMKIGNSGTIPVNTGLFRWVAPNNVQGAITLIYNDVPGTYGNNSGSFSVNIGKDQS",
    "glycan array binding signal (z-score)": -0.236
  },
  {
    "BINDER": "EfCBM33A (Enterococcus faecalis), Q838S1 (protein) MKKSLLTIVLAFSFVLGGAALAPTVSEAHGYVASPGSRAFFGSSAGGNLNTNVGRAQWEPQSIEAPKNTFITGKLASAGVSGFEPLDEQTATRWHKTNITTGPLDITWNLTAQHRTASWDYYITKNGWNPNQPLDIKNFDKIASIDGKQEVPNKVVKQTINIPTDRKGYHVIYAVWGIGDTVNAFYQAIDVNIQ",
    "glycan array binding signal (z-score)": 1.05
  },
  {
    "BINDER": "Na-CTL-1 (Necator americanus) (protein) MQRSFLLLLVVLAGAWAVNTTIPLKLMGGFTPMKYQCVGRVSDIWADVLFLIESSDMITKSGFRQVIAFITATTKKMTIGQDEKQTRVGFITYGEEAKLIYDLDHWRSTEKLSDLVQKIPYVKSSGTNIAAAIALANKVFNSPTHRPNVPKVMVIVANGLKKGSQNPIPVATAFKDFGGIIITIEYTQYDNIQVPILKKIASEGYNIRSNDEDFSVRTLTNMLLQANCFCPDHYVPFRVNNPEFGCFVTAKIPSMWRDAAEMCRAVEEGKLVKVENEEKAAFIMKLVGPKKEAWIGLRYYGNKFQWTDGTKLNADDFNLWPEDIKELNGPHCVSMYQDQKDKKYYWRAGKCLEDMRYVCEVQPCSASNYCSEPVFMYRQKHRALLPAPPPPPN",
    "glycan array binding signal (z-score)": 1.86
  }
]

Which glycan array binding signal (z-score) reading was recorded for the binder SfaEH (Escherichia coli), Q1RDG5 (protein) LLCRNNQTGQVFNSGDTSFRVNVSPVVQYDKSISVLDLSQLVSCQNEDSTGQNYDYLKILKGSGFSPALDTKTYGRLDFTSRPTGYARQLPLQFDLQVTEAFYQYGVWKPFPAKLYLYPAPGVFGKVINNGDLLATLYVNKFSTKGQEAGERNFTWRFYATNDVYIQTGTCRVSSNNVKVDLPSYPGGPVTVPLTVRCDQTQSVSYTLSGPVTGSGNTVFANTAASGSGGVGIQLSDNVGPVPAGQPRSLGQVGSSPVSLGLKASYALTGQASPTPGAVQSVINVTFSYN ?
-0.125

Same lookup for GST Gap3 (Streptococcus parasanguinis) (protein) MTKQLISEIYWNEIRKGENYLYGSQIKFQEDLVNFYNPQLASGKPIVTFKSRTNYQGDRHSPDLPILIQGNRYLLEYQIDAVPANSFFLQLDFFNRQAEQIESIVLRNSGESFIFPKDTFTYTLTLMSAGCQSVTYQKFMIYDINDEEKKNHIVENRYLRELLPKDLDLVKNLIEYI , please.
0.123
